B1: PhoQ; a variant is named by its letters at X, in order, P23837 (parent)
chain: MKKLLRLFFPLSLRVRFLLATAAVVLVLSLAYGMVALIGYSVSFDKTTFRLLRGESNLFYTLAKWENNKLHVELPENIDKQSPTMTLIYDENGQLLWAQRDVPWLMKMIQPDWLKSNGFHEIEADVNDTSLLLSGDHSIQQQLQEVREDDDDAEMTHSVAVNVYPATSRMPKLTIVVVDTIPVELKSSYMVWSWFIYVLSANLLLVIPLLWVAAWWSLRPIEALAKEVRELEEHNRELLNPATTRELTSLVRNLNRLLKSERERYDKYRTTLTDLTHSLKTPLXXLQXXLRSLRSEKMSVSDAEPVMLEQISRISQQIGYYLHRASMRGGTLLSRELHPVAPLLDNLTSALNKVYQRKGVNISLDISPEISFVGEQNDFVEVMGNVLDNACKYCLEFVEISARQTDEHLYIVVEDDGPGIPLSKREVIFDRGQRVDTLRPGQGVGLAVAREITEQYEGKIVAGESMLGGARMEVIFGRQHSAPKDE

# Variants of: B1
# PROCEDURE_TEXT: enrichment ratio after two sorts for PhoP signalling (ratio (wild type AVST 3.29)); higher = more functional
# COND: with PhoP (E. coli)
Over roughly 140,000 sequences, “enrichment ratio after two sorts for PhoP signalling” has its median near 0; the highest 2% begin near 11. Only a selection was taken, and the highest values are over-represented in it overall.
Please respond with reported enrichment ratio for every item in the list.

// field: enrichment ratio; key: MITC ; value = ≤ 0.25

Per the records, this variant ( TMGQ ) has enrichment ratio equal to 5.04

Entry under test: MEGC . Its enrichment ratio was ≤ 0.25

Item: TGTQ | enrichment ratio: 17.7

Entry TSCL — recorded enrichment ratio = 19.6

Entry TQFP — recorded enrichment ratio = ≤ 0.25

Form: variant = FAWY ; enrichment ratio = ≤ 0.25

// recorded enrichment ratio for TMLC : 13.8

The variant identified as RGCL registered its enrichment ratio at ≤ 0.25

Record summary for MKTQ : reported enrichment ratio = ≤ 0.25

What the record says about GGCL : enrichment ratio is 8.88

The recorded enrichment ratio for LCTQ is ≤ 0.25

Reported enrichment ratio ( SGCL ) = 15.6

enrichment ratio for VEGC is ≤ 0.25

The reported enrichment ratio of the variant TMPP was ≤ 0.25

// DDFY : enrichment ratio value = ≤ 0.25

Just so you know, measured enrichment ratio for DYYD came out at ≤ 0.25

Lookup result for RQYR ; measured enrichment ratio: ≤ 0.25

Briefly, enrichment ratio measured for DMLC : ≤ 0.25

Kindly note the recorded enrichment ratio for SGDL , which is ≤ 0.25

The reported value for TKTQ in terms of enrichment ratio is 12.6

Form: variant = NNTQ ; enrichment ratio = ≤ 0.25

Cited source for all entries: a collection of fitness landscapes (doi:10.1126/science.1257360)
